Data provenance: patent EP2650284A1

Give measured pEC50 for each item. Keep answers brief.
# TARGET_SYSTEM: mGluR5 receptors (Rattus norvegicus, UniProt P31424)
# Construct: Primary astrocyte cultures are prepared from cortices of newborn rats; endogenous in cells; host or cells: primary cortical astrocytes from Sprague-Dawley rat pups (2-4 d old)
# Sequence (P31424 21-1203): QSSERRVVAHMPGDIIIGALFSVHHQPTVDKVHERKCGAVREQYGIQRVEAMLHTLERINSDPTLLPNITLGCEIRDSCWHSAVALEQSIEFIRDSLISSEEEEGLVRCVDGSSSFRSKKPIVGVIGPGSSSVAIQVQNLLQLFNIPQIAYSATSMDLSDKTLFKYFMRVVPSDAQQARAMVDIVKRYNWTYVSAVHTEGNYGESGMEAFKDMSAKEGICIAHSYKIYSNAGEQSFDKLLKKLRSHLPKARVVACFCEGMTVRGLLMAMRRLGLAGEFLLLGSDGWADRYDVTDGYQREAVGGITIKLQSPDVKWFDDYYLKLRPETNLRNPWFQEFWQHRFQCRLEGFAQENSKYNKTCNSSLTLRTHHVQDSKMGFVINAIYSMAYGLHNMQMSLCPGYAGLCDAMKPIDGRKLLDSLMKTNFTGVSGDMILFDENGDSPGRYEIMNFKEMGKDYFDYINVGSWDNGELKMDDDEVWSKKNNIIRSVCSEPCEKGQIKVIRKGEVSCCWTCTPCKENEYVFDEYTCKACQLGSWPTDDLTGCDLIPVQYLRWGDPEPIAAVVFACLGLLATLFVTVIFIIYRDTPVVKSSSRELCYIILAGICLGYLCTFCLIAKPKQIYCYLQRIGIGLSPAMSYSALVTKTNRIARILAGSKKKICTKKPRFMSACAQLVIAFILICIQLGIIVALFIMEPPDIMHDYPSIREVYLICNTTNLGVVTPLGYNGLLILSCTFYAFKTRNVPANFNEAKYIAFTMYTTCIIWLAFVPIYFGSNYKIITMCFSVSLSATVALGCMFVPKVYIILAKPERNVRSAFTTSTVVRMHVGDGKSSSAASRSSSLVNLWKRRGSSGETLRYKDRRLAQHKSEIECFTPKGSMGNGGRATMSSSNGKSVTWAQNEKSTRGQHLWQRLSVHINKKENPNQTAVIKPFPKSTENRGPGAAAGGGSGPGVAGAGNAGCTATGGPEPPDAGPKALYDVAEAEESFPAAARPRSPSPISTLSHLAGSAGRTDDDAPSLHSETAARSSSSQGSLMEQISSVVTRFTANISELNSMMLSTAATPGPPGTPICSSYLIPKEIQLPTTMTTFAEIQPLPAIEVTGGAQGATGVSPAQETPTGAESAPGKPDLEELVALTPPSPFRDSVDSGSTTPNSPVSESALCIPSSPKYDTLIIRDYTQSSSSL
# TEST_METHOD_NOTES: Cytosolic calcium studies with astrocytes (FLIPR), functional assay of mGluR5 receptors
# Assay type: cell-based
# DETAILS: Table A1, positive modulators, fixed concentration of quisqualate (normally 10-30 nM), read-out: rEC50
Numbers only, as −log10 of the molar value.

Solved entries (count: 6):
| COMPOUND | TARGET_SYSTEM | pEC50 |
| --- | --- | --- |
| COC(=O)N1CCO[C@@H]2c3cc(C#Cc4ccccc4)cnc3CC[C@@H]21 (racemic) [Example 26] | mGluR5 receptors (Rattus norvegicus, UniProt P31424) | 6.22 |
| COC(=O)N1C2CCC1c1cc(C#Cc3cccc(F)c3)cnc1C2 (racemic) [Example 59] | mGluR5 receptors (Rattus norvegicus, UniProt P31424) | 6.99 |
| CC1(C(=O)N2CCc3ncc(C#Cc4ccccc4)cc3C2)COC1 [Example 36] | mGluR5 receptors (Rattus norvegicus, UniProt P31424) | 5.39 |
| O=S(=O)(C1CC1)N1CCc2ncc(C#Cc3ccccc3)cc2C1 [Example 38] | mGluR5 receptors (Rattus norvegicus, UniProt P31424) | 6.32 |
| FC(F)(F)CCN1CCO[C@@H]2c3cc(C#Cc4ccccc4)cnc3CC[C@@H]21 (racemic) [Example 25] | mGluR5 receptors (Rattus norvegicus, UniProt P31424) | 6.87 |
| COC(=O)N1C2CCC1c1cc(C#Cc3ccccc3)cnc1C2 (racemic) [Example 58] | mGluR5 receptors (Rattus norvegicus, UniProt P31424) | 6.95 |

Lab note: each compound below needs its pEC50 filled in.
1. O=S(=O)(N1CCCCC1)N1CCc2ncc(C#Cc3ccccc3)cc2C1 [Example 54]
2. CCCN1CCO[C@@H]2c3cc(C#Cc4ccc(F)cc4)cnc3CC[C@@H]21 (racemic) [Example 20]
3. CCCN1CCO[C@@H]2c3cc(C#Cc4ccccc4)cnc3CC[C@@H]21 (single isomer, unassigned) [Example 17]
4. O=S(=O)(N1CCOCC1)N1CCc2ncc(C#Cc3ccccc3)cc2C1 [Example 55]
5. COC(=O)N1C[C@H]2Cc3cc(C#Cc4cccc(F)c4)cnc3[C@H]2C1 (racemic) [Example 73]
6. COC(=O)N1CC2Cc3cc(C#Cc4ccccc4)cnc3C2C1 (racemic) [Example 79]
7. CCCN1CCO[C@@H]2c3cc(C#Cc4ccccc4)cnc3CC[C@@H]21 (single isomer, unassigned) [Example 16]

6.33
5.87
7.17
6.49
6.66
6.78
6.34

I have 4 compounds here; please give me pEC50 for each one.
1. O=S(=O)(N1CCCC1)N1CCc2ncc(C#Cc3ccccc3)cc2C1 [Example 53]
2. CCN1CCO[C@@H]2c3cc(C#Cc4ccccc4)cnc3CC[C@@H]21 (racemic) [Example 14]
3. CC(C)(C)OC(=O)N1CCc2ncc(C#Cc3ccccc3)cc2C1 [Example 42]
4. CN1CCN(S(=O)(=O)N2CCc3ncc(C#Cc4ccccc4)cc3C2)CC1 [Example 78]

6.82
6.24
6.88
5.69
